# Test system: NF-κ B
# assay-text: Inhibitory activity of NF-κ B activation, luciferase reporter assay in HepG2 under TNF-α stimulation
# Type: cell-based, human
# measurement-conditions: 1 μg/mL; HepG2, TNF-α (40 ng/ml), 4 hours
Parameter threshold = 90%. Response is Satisfied when Inhibitory Ratio of NF-κ B Activation(%) Drug Concentration 1 μg/mL meets or exceeds it, else Not satisfied.

Reference set (4 entries):
| structure-smiles | assigned-category |
| --- | --- |
| Cc1cc(C)cc(NC(=O)c2cc(Br)ccc2O)c1 | Not satisfied |
| O=C(Nc1cc(C(F)(F)F)ccc1Cl)c1cc(Cl)cnc1O | Not satisfied |
| CC(C)CCOc1ccc(OCCC(C)C)c(NC(=O)c2cc(Cl)ccc2O)c1 | Satisfied |
| CSc1ccc(C(F)(F)F)cc1NC(=O)c1cc(Cl)ccc1O | Satisfied |

Consider the additional compound presented here.
Request: # check: Inhibitory Ratio of NF-κ B Activation(%) Drug Concentration 1 μg/mL of CC(C)c1cc(Br)cc(C(=O)Nc2cc(C(F)(F)F)cc(C(F)(F)F)c2)c1O is greater than or equal to 90%
Response: Satisfied

* * *

# reported Inhibitory Ratio of NF-κ B Activation(%) Drug Concentration 1 μg/mL; entries follow
# System: NF-κ B
# assay-text: Inhibitory activity of NF-κ B activation, luciferase reporter assay in HepG2 under TNF-α stimulation
# Type: cell-based, human
# measurement-conditions: 1 μg/mL; HepG2, TNF-α (40 ng/ml), 4 hours
Number in %, nothing else.

Reference set (2 entries):
| compound | assay-target | reading |
| --- | --- | --- |
| COc1ccc(Oc2ccccc2)cc1NC(=O)c1cc(Cl)ccc1O [Compound No. 171] | NF-κ B | 90.6 |
| Cc1ccc(O)c(C(=O)Nc2cc(C(F)(F)F)ccc2C)c1 [Compound No. 102] | NF-κ B | 89.3 |

Request: Item under review: Cc1ccc(O)c(C(=O)Nc2cc(C(F)(F)F)ccc2C(F)(F)F)c1 [Compound No. 84] . Reported Inhibitory Ratio of NF-κ B Activation(%) Drug Concentration 1 μg/mL?
Response: 92.6

* * *

# System: IL-8
# assay-text: Inhibition of IL-8 production by TNFα stimulation in synovial fibroblasts derived from a rheumatoid patient (ELISA)
# Format: cell-based, human
# measurement-conditions: Homo sapiens, Fibroblast; comparison compounds; synovial fibroblasts, TNFα stimulation; read-out: Inhibition against Mediator Release IC50(nM) IL-8
# Procedure: Synovial fibroblasts (Human Synoviocyte (RA-Positive), Toyobo, T4040-05) were cultured for 3 days in a medium containing 10 ng/ml of TNFα and a test compound. IL-6 and IL-8 in the supernatant were measured by the ELISA method, and PGE2 (prostaglandin E2) was measured by the EIA method.
# reported IC50; entries follow

Reference set (2 entries):
| compound | reading |
| --- | --- |
| O=C(Nc1ccc(C(F)(F)F)cc1C(F)(F)F)c1cc(Cl)ccc1O [Reference Example 1, reference compound] | > 1000 nM |
| O=C(Nc1ccc(Cl)cc1C(F)(F)F)c1cc(Cl)ccc1O [Reference Example 3, reference compound] | > 1000 nM |

Request: Item under review: O=C(Nc1ccc(Cl)c(Cl)c1)c1cc(Br)ccc1O [drawing 563, reference compound] . Reported IC50?
Response: > 1000 nM

Value source: patent US20060089395A1
